- TEST SYSTEM: T1, purified human glycophorin A protein (Sigma, cat # G5017) (human, UniProt P02724 20-150)
- T1 construct: mature; also called Sigma hGPA; Sigma GPA
- T1 sequence (looked up): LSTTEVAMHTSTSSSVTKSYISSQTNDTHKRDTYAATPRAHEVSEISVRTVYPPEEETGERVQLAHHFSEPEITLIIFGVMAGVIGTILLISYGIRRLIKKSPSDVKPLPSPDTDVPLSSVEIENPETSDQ
- METHOD SUMMARY: ELISA, native hGPA
ENDPOINT NAME: binding by ELISA relative to parental
Numbers only.

Some binders with recorded binding by ELISA relative to parental:
Value lookup for binding by ELISA relative to parental; key = TPP-5342 (Fab, V domains shown, also called VL: (S27Q)) VH: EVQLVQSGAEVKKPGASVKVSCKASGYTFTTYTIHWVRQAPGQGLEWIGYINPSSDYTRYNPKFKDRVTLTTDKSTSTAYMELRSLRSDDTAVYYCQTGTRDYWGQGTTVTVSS VL: DIQLTQSPSFLSASVGDRVTITCSAAQSVSYIYWFQQKPGKAPKLLIYSTSTLPSGVPSRFSGSGSGTEYTLTISSLQPEDFATYYCHQRNSFPFTFGQGTKLEIKR 0.91

Value lookup for binding by ELISA relative to parental; key = TPP-5341 (Fab, V domains shown, also called VL: (A26S)) VH: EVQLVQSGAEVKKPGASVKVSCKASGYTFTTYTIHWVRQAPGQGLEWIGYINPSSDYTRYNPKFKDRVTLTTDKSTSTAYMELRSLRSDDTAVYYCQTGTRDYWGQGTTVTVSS VL: DIQLTQSPSFLSASVGDRVTITCSASSSVSYIYWFQQKPGKAPKLLIYSTSTLPSGVPSRFSGSGSGTEYTLTISSLQPEDFATYYCHQRNSFPFTFGQGTKLEIKR 1.03

From here, focus on the item given below.
Value lookup for binding by ELISA relative to parental; key = TPP-5330 (Fab, V domains shown, also called VH: (L70M)) VH: EVQLVQSGAEVKKPGASVKVSCKASGYTFTTYTIHWVRQAPGQGLEWIGYINPSSDYTRYNPKFKDRVTMTTDKSTSTAYMELRSLRSDDTAVYYCQTGTRDYWGQGTTVTVSS VL: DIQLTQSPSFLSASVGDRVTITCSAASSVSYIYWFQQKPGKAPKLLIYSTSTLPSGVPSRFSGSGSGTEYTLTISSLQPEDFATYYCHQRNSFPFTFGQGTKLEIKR 1.2
